Biological target: T1, human MSLN-R2-his protein (human, UniProt Q13421 391-486)
T1 construct: Self-made in HEK293E cells; also called human MSLN-R2 protein; hMSLN-R2-his; not shown: His tag
T1 sequence (Q13421 other isoform, or with tags, fused parts or gaps): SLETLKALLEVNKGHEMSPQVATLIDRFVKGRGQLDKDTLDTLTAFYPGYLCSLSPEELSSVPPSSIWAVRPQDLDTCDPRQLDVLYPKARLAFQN
Assay: ELISA on coated antigen, antibody 1 nM
Overview of reported OD450 across a group of binders:
Reply with just the number (in OD450).

S009-F2.47.1 (antibody, human IgG1, kappa, V domains shown, Human-murine chimeric antibody: murine VH/VL on human IgG1 heavy and kappa light constant regions) VH: QVQLQQPGAELVKPGASVKLSCKASGYTFTSYWMHWVKQRPGQGLEWIGMIHPNSGSTNYNEKFKSKATLTVDKSSSTAYMQLSSLTSEDSAVYYCARPVVPYWYFDVWGTGTTVTVSS VL: DIVMTQSQKFMSTTVGDRVSITCKASQNVGTAVAWYQQKPGQSPKLLIYSASNRYTGVPDRFTGSGSGTDFTLTISNMQSEDLADYFCQQSSSYPLTFGAGTKLELKR
0.05
S009-F2.16.10 (antibody, human IgG1, kappa, V domains shown, Human-murine chimeric antibody: murine VH/VL on human IgG1 heavy and kappa light constant regions) VH: QVQLQQPGAELIKPGASVKLSCKASGYTFTSYWMHWVKQRPGQGLEWIGIIHPNIGSTNYNERFKSKATLTVDKSSSTAYMQLSSLTSEDSAVYYCARRSSNYGDWYFDVWGTGTTVTVSS VL: DIVMTQSHRFMSTSVGDRVSITCKASQDVGTSVAWYQQKPGQSPKLLIYWASTQHTGVPDRFTGSGSGTDFTLTINNVQSEDLLDYFCQQYSSYPLTFGAGTKLELKR
0.05

--- query ---
Measured OD450 of S009-F2.38.12 (antibody, human IgG1, kappa, V domains shown, Human-murine chimeric antibody: murine VH/VL on human IgG1 heavy and kappa light constant regions) VH: QVQLQQPGTELVKPGASVKLSCKASGYTFTSYWMHWVKQRPGQGLEWIGNINPSNGGTNYNEKIKNKATLTVDKSSSTAYMQLSSLTSEDSAVYYCARWNYYGNYPFDYWGQGTTLTVSS VL: DIVMTQSQKFMSTTVGDRVSITCKASQNVGTAVAWYQQKPGQSPKLLIYSASNRYTGVPDRFTGSGSGTDFTLTISNMQSEDLADYFCQQYSSYPLTFGAGTKLELKR : 0.05
